# Experimental Target: Scavenger receptor class B member 1 (Mus musculus) (UniProt Q61009)
# Sequence (Q61009 whole entry, looked up): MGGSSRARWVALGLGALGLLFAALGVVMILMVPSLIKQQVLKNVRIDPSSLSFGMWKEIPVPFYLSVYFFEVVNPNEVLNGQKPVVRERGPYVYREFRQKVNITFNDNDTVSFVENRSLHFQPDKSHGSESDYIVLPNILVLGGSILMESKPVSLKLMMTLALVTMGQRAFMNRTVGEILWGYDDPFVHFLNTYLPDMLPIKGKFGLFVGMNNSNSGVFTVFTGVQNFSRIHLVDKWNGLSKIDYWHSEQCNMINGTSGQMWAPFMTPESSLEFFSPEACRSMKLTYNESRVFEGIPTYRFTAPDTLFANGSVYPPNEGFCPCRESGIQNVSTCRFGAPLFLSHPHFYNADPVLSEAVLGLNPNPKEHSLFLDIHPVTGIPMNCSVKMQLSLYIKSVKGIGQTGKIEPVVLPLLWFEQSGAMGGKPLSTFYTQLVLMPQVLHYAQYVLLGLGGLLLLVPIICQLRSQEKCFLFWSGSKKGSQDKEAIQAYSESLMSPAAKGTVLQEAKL
# Experiment: enhancers of DiI-HDL lipid transfer via SR-BI – cell-based, ldlA[mSR-BI] CHO, DiI fluorescence, cherry-pick, dose response (AID 602191);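 note: cell fluorescence from internalized DiI-labeled HDL after washing; 0% = median of DMSO wells and 100% = twice the DMSO signal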
# Measurement Conditions: ldlA[mSR-BI] CHO cells, 3 h, at 35 µM (top of the series)
Listed here are molecules together with their documented activation (HDL uptake increase).
Express it in %; write the number only.

Some entries whose results are on file:
>  <Molecule>
CCc1ccccc1NC(=O)CN1CCC(NC(=O)COC)CC1

>  <activation (HDL uptake increase) (%)>
-1.48

$$$$
>  <Molecule>
C[C@H](NC(=O)c1nc[nH]c1C(=O)NCc1ccccc1)c1ccccc1

>  <activation (HDL uptake increase) (%)>
-1.54

$$$$
>  <Molecule>
O=C(C[C@H]1C/C=C\C[C@@H](Cc2ccc(F)cc2)C(=O)OC[C@H]2CCCN2C1=O)N[C@H](CO)Cc1ccccc1

>  <activation (HDL uptake increase) (%)>
6.35

$$$$

Task: Consider the molecule shown here: COc1ccc(NC(=O)C(NC(=O)Cc2cccs2)c2ccc(C)cc2)cc1 (centres undefined) What is its recorded activation (HDL uptake increase)?
Output: 2.03

Task: Consider the molecule shown here: COc1ccc(NC(=O)CN(C)C(=O)C2(c3ccccc3)CCCC2)cc1 What is its recorded activation (HDL uptake increase)?
Output: -15.3

Task: Consider the molecule shown here: COc1ccc(Cn2c(N)c(S(=O)(=O)c3cccs3)c3nc4ccccc4nc32)cc1 What is its recorded activation (HDL uptake increase)?
Output: -19.6

Task: Consider the molecule shown here: COc1ccc2c(c1)C(C)(CCN)C(=O)N2C (centres undefined) What is its recorded activation (HDL uptake increase)?
Output: -0.472

Task: Consider the molecule shown here: CN1CCN(C(=O)C2CCCN(S(=O)(=O)c3ccc(Br)cc3)C2)CC1 (centres undefined) What is its recorded activation (HDL uptake increase)?
Output: -5.87

Task: Consider the molecule shown here: CCN(CC(=O)Nc1ccc(OC)cc1)C(=O)c1ccc(=O)n(Cc2ccccc2)n1 What is its recorded activation (HDL uptake increase)?
Output: -12.4

Task: Consider the molecule shown here: COC(=O)c1ccc([C@@H](O)[C@H](C)C(=O)CC(=O)OC(C)(C)C)cc1 What is its recorded activation (HDL uptake increase)?
Output: 4.09

Task: Consider the molecule shown here: O=C(CN1CCN(S(=O)(=O)c2ccc(Cl)s2)CC1)NCc1ccc(Cl)cc1 What is its recorded activation (HDL uptake increase)?
Output: -4.32

====

# Experimental Target: Scavenger receptor class B member 1 (Mus musculus)
# Experiment: enhancers of DiI-HDL lipid transfer via SR-BI – cell-based, ldlA[mSR-BI] CHO, DiI fluorescence, cherry-pick, dose response (AID 602191);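 note: cell fluorescence from internalized DiI-labeled HDL after washing; 0% = median of DMSO wells and 100% = twice the DMSO signal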
# Measurement Conditions: ldlA[mSR-BI] CHO cells, 3 h, at 35 µM (top of the series)
Activity calls are given as the source filed them.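 The calls were made as follows: active = fitted curve reaches 40% activation at a concentration no higher than the top valid tested dose; inconclusive = flat fit between 30% and 70% activation, or poor fit; inactive = uptake decrease, flat fit within 30% of zero, the rest.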
Measured Endpoint: activation (HDL uptake increase)

>  <Compound>
O=C1NC2NC(=O)N(C(Cc3ccccc3)C(=O)O)C2N1 (stereo not drawn)

>  <activation (HDL uptake increase)>
-4.43% (inactive)

$$$$

Task: Consider the compound shown here: Cc1ccc(C(C(=O)NC2CCCC2)N(Cc2ccc(F)cc2)C(=O)c2csnn2)o1 (stereo not drawn) What is its recorded activation (HDL uptake increase)?
Output: 6.32% (inactive)

Task: Consider the compound shown here: O=C(N1CCN(S(=O)(=O)c2ccc(Cl)cc2)CC1)n1ccnc1 What is its recorded activation (HDL uptake increase)?
Output: -2.88% (inactive)
